SYSTEM UNDER TEST: UniProtKB P08173
ASSAY NAME: CHRM4 Ca++ Flux Assay (M4_CHO cells, agonist mode)
STUDY CONDITIONS: geometric mean if tested more than once, read-out: M4 FDSS EC50
Could you mark each record 1 if its EC50 falls strictly under 50 nM, and 0 if it equals or exceeds it?

COMPOUND	CLASS LABEL
Fc1cc(F)c(OC2COC2)c(C2CCN([C@@H]3COC4(C3)CN(c3nnco3)C4)CC2)c1 [Example 2EE]	0
Fc1ccc(OC2CCOCC2)c(C2CCN([C@@H]3COC4(C3)CN(c3nncs3)C4)CC2)c1 [Example 5J]	1
Fc1ccc(OC2CCOCC2)c(C2CCN([C@@H]3COC4(C3)CN(c3nnco3)C4)CC2)c1 [Example 1G]	1
COc1ccccc1C1CCN([C@@H]2COC3(C2)CN(c2nncs2)C3)CC1 [Example 5R]	0
Fc1ccc(O[C@@H]2CCOC2)c(C2CCN([C@@H]3COC4(C3)CN(c3nncs3)C4)CC2)c1 [Example 5H]	1
Fc1ccc([C@H]2CCOC2)c(C2CCN([C@@H]3COC4(C3)CN(c3nnco3)C4)CC2)c1 (single isomer, unassigned) [Example 3E]	1
Fc1ccc(OCC2COC2)c(C2CCN([C@@H]3COC4(C3)CN(c3nncs3)C4)CC2)c1 [Example 2A]	1
Fc1cc(F)c(O[C@@H]2CCOC2)c(C2CCN([C@@H]3COC4(C3)CN(c3nnco3)C4)CC2)c1 [Example 2CC]	0
Fc1cc(O[C@@H]2CCOC2)c(C2CCN([C@@H]3COC4(C3)CN(c3nnco3)C4)CC2)cc1F [Example 1R]	1
Fc1ccc(OCC2C3COCC32)c(C2CCN([C@@H]3COC4(C3)CN(c3nnco3)C4)CC2)c1 (some centres unmarked) [Example 2Z]	0
CC(C)(O)COc1ccc(F)cc1C1CCN([C@@H]2COC3(C2)CN(c2nnco2)C3)CC1 [Example 1U]	0
c1ccc(C2CCN([C@@H]3COC4(C3)CN(c3ncco3)C4)CC2)c(C2CCOCC2)c1 [Example 4V]	1
Fc1ccc(O[C@H]2CCCOC2)c(C2CCN([C@@H]3COC4(C3)CN(c3nnco3)C4)CC2)c1 (single isomer, unassigned) [Example 2R]	1
c1ccc(C2CCN([C@@H]3COC4(C3)CN(c3ncco3)C4)CC2)c(OC2COC2)c1 [Example 4C]	1
Fc1ccc(OC[C@H]2CCCO2)c(C2CCN([C@@H]3COC4(C3)CN(c3nnco3)C4)CC2)c1 [Example 2M]	0
COCCOc1ccc(F)cc1C1CCN([C@@H]2COC3(C2)CN(c2ncco2)C3)CC1 [Example 4L]	1
Fc1ccc(OCC2(F)COC2)c(C2CCN([C@@H]3COC4(C3)CN(c3nnco3)C4)CC2)c1 [Example 2J]	1
Fc1ccc([C@H]2CCOC2)c(C2CCN([C@@H]3COC4(C3)CN(c3nnco3)C4)CC2)c1 (single isomer, unassigned) [Example 3F]	1
c1ccc(C2CCN([C@@H]3COC4(C3)CN(c3nnco3)C4)CC2)c(CC2CCOCC2)c1 [Example 3G]	0
COc1ccccc1C1CCN([C@@H]2COC3(C2)CN(c2nnco2)C3)CC1 [Example 1Q]	0
CC(C)(O)CCOc1ccc(F)cc1C1CCN([C@@H]2COC3(C2)CN(c2nnco2)C3)CC1 [Example 1N]	0
c1ccc([C@@H]2CCOC2)c(C2CCN([C@@H]3COC4(C3)CN(c3nnco3)C4)CC2)c1 (single isomer, unassigned) [Example 3A]	0
Cc1nnc(-c2ccccc2C2CCN([C@@H]3COC4(C3)CN(c3nnco3)C4)CC2)o1 [Example 1Y]	0

---

SYSTEM UNDER TEST: human cloned CHRM4 receptor (Homo sapiens)
Construct: expressed in transfected cells; host or cells: CHO-K1 (M4_CHO)
Sequence (P08173 1-479): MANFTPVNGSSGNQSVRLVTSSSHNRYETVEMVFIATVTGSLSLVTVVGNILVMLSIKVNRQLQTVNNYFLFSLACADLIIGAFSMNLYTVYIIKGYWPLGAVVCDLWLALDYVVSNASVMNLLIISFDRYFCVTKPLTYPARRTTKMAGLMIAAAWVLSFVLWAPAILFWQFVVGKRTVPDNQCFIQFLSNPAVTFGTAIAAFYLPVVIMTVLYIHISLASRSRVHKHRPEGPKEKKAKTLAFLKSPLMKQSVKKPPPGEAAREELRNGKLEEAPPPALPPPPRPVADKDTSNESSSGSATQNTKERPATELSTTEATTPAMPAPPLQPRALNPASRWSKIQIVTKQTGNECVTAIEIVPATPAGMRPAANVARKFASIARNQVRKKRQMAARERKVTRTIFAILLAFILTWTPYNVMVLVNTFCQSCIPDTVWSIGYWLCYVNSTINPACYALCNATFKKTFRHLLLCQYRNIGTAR
ASSAY NAME: CHRM4 Ca++ Flux Assay (M4_CHO cells, agonist mode)
Type: cell-based
STUDY CONDITIONS: Percent Activity (PA), read-out: M4 FDSS PA %

COMPOUND	UNIT SPEC	Emax
CC(C)(C#N)COc1ccc(F)cc1C1CCN([C@@H]2COC3(C2)CN(c2nnco2)C3)CC1 [Example 1E]	%	78
Fc1cc(F)c(O[C@@H]2CCOC2)c(C2CCN([C@@H]3COC4(C3)CN(c3nnco3)C4)CC2)c1 [Example 2CC]	%	79
Fc1ccc(OC2COC2)c(C2CCN([C@@H]3COC4(C3)CN(c3ncco3)C4)CC2)c1 [Example 4A]	%	80
Fc1ccc(O[C@@H]2CCOC2)c(C2CCN([C@@H]3COC4(C3)CN(c3nnco3)C4)CC2)c1 [Example 1D]	%	80
COc1cc(F)ccc1C1CCN([C@@H]2COC3(C2)CN(c2nnco2)C3)CC1 [Example 1S]	%	68
c1ccc(C2CCN([C@@H]3COC4(C3)CN(c3ncco3)C4)CC2)c(O[C@H]2CCOC2)c1 [Example 4H]	%	69
c1ccc(C2CCN([C@@H]3COC4(C3)CN(c3ncco3)C4)CC2)c(C2CCOCC2)c1 [Example 4V]	%	82

---

SYSTEM UNDER TEST: Cloned human M1 receptor (CHRM1) (Homo sapiens, UniProt P11229)
Construct: expressed in transfected cells; host or cells: HEK293
Sequence (P11229 whole entry): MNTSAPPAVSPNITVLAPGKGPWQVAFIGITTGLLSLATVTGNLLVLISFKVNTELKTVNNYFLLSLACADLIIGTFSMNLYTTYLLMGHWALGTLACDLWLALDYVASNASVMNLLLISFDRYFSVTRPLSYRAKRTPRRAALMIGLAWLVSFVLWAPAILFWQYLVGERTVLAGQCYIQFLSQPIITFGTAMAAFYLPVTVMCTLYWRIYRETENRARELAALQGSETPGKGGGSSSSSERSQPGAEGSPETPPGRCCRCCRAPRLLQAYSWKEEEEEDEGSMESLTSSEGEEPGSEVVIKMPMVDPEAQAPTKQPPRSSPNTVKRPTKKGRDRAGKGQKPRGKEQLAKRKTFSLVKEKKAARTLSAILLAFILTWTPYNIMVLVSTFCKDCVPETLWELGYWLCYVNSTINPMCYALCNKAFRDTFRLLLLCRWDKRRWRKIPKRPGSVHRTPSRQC
ASSAY NAME: CHRM1 Ca++ Flux Assay (HEK293 M1 cells, agonist mode)
Assay type: cell-based
STUDY CONDITIONS: geometric mean if tested more than once, read-out: M1 FDSS EC50
pEC50: −log10 of the molar value.
Use 6 as the dividing line for pEC50, with the line itself on the Criterion met side and lower values as Criterion not met.

MOLECULE	CLASS LABEL
OC1(COc2ccc(F)cc2C2CCN([C@@H]3COC4(C3)CN(c3nnco3)C4)CC2)COC1 [Example 2U]	Criterion met
Fc1cc(F)c(OC2COC2)c(C2CCN([C@@H]3COC4(C3)CN(c3nnco3)C4)CC2)c1 [Example 2EE]	Criterion not met
O[C@H]1CC[C@@H](c2ccc(F)cc2C2CCN([C@@H]3COC4(C3)CN(c3nnco3)C4)CC2)CC1 (single isomer, unassigned) [Example 3I]	Criterion not met
Fc1ccc(OC2COC2)c(C2CCN([C@@H]3COC4(C3)CN(c3nncs3)C4)CC2)c1 [Example 5G]	Criterion met
COC(C)(C)CCOc1ccc(F)cc1C1CCN([C@@H]2COC3(C2)CN(c2nnco2)C3)CC1 [Example 1K]	Criterion not met

---

SYSTEM UNDER TEST: human cloned CHRM2 receptor (Homo sapiens, UniProt P08172)
Sequence (P08172 whole entry): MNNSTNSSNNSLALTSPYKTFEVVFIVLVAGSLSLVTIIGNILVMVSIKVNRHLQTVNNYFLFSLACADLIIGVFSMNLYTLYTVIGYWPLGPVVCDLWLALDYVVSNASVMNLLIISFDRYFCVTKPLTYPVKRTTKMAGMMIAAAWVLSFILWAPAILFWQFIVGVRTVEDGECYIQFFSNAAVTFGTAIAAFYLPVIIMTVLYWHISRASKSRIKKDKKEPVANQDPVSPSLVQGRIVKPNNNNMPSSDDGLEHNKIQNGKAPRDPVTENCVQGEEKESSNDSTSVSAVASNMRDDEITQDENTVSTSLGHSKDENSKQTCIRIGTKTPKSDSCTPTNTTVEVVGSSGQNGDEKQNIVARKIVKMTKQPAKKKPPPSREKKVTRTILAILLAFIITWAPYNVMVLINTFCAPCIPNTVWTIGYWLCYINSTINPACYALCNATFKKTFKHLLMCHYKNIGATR
ASSAY NAME: CHRM2 Ca++ Flux Assay (M2_CHO cells, agonist mode)
STUDY CONDITIONS: M2 CHO cells, agonist mode; geometric mean if tested more than once; read-out: M2 FDSS EC50
pEC50: −log10 of the molar value.

SMILES DATA	SYSTEM UNDER TEST	SIGN QUALIFIER	pEC50
Fc1ccc(C2CCOCC2)c(C2CCN([C@@H]3COC4(C3)CN(c3ncco3)C4)CC2)c1	human cloned CHRM2 receptor (Homo sapiens, UniProt P08172)	=	5.29
CC(C)(O)COc1ccccc1C1CCN([C@@H]2COC3(C2)CN(c2ncns2)C3)CC1	human cloned CHRM2 receptor (Homo sapiens, UniProt P08172)	<	4.60
Fc1ccc(OC[C@H]2COCCO2)c(C2CCN([C@@H]3COC4(C3)CN(c3nncs3)C4)CC2)c1	human cloned CHRM2 receptor (Homo sapiens, UniProt P08172)	=	6.34
c1ccc(C2CCN([C@@H]3COC4(C3)CN(c3nnco3)C4)CC2)c(O[C@@H]2CCOC2)c1	human cloned CHRM2 receptor (Homo sapiens, UniProt P08172)	=	6.21
Fc1ccc(C2CCN([C@@H]3COC4(C3)CN(c3ncco3)C4)CC2)c(OC2COC2)c1	human cloned CHRM2 receptor (Homo sapiens, UniProt P08172)	<	4.60
Fc1ccc(OCC2COC2)c(C2CCN([C@@H]3COC4(C3)CN(c3nncs3)C4)CC2)c1	human cloned CHRM2 receptor (Homo sapiens, UniProt P08172)	=	6.28
COc1cc(F)ccc1C1CCN([C@@H]2COC3(C2)CN(c2ncns2)C3)CC1	human cloned CHRM2 receptor (Homo sapiens, UniProt P08172)	<	4.60
COC(C)(C)CCOc1ccc(F)cc1C1CCN([C@@H]2COC3(C2)CN(c2nnco2)C3)CC1	human cloned CHRM2 receptor (Homo sapiens, UniProt P08172)	<	4.60
